The compounds listed here are annotated with their Ki.
# system_under_test: Phosphatidylinositol 4,5-bisphosphate 3-kinase catalytic subunit alpha isoform (Homo sapiens)
# Sequence (P42336 whole entry, canonical isoform): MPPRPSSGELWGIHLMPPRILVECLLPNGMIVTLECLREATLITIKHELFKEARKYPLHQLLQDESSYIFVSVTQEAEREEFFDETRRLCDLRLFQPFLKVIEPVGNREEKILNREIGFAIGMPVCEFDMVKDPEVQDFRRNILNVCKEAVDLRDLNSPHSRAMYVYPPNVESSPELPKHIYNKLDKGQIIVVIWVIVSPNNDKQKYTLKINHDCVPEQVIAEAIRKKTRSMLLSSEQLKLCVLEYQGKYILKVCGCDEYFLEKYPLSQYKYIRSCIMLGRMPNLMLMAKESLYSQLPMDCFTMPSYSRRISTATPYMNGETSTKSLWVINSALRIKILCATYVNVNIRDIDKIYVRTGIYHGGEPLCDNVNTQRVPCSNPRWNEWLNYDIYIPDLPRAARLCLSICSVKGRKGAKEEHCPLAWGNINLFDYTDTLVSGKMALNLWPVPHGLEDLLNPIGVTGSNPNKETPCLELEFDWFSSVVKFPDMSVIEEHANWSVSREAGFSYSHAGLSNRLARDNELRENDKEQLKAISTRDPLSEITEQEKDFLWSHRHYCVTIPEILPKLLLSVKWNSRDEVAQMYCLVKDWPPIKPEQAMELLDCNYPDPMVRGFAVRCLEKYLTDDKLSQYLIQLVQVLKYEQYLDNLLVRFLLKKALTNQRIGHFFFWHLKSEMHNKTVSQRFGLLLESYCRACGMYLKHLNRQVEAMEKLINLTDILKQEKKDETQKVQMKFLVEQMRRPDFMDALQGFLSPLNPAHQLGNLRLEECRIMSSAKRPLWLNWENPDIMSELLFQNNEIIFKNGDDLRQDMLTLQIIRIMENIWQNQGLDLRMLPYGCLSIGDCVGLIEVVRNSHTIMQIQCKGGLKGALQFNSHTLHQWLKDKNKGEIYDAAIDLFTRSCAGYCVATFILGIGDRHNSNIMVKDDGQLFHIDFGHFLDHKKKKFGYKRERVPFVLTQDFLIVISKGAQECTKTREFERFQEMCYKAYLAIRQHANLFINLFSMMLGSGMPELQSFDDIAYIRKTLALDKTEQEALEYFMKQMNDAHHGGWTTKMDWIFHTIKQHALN
# measurement_notes: Inhibition of PI3Kalpha (unknown origin)

Some solved cases for reference:
compound	Ki
Oc1cc([C@H]2C3CCC(CC3)[C@@H]2Nc2nc(-c3c[nH]c4ncc(F)cc34)ncc2F)no1 (mixture of isomers)	0.88 µM
O=c1[nH]c(=O)n(C[C@H]2C3CCC(CC3)[C@@H]2Nc2nc(-c3c[nH]c4ncc(F)cc34)ncc2F)o1 (mixture of isomers)	1.5 µM
CC(=O)NS(=O)(=O)[C@H]1C2CCC(CC2)[C@@H]1Nc1nc(-c2c[nH]c3ncc(F)cc23)ncc1F (mixture of isomers)	> 4 µM

Q. Quick check: Ki of NS(=O)(=O)[C@H]1C2CCC(CC2)[C@@H]1Nc1nc(-c2c[nH]c3ncc(F)cc23)ncc1F (mixture of isomers) ?
A. > 4 µM

Q. Quick check: Ki of OCC(O)[C@H]1C2CCC(CC2)[C@@H]1Nc1nc(-c2c[nH]c3ncc(F)cc23)ncc1F (mixture of isomers) ?
A. 2.6 µM

---

Form: system (Serine/threonine-protein kinase PLK1 (Homo sapiens)), quantity (pKi), values below.
Here pKi is given on a logarithmic scale as minus log10 of the concentration in mol/L.

Some solved cases for reference:
compound	result_value
O=c1[nH]c(=O)n(C[C@H]2C3CCC(CC3)[C@@H]2Nc2nc(-c3c[nH]c4ncc(F)cc34)ncc2F)o1 (mixture of isomers)	5.96
NS(=O)(=O)[C@H]1C2CCC(CC2)[C@@H]1Nc1nc(-c2c[nH]c3ncc(F)cc23)ncc1F (mixture of isomers)	5.68
OCC(O)[C@H]1C2CCC(CC2)[C@@H]1Nc1nc(-c2c[nH]c3ncc(F)cc23)ncc1F (mixture of isomers)	6.29
Oc1cc([C@H]2C3CCC(CC3)[C@@H]2Nc2nc(-c3c[nH]c4ncc(F)cc34)ncc2F)no1 (mixture of isomers)	6.00
CC(O)[C@H]1C2CCC(CC2)[C@@H]1Nc1nc(-c2c[nH]c3ncc(F)cc23)ncc1F (mixture of isomers)	6.00

Q. Form: Entry = O=P(O)(O)CC[C@H]1C2CCC(CC2)[C@@H]1Nc1nc(-c2c[nH]c3ncc(F)cc23)ncc1F (mixture of isomers) | System = Serine/threonine-protein kinase PLK1 (Homo sapiens) | pKi = ____
A. 6.49

Q. Form: Entry = Oc1cc([C@H]2C3CCC(CC3)[C@@H]2Nc2nc(-c3c[nH]c4ncc(F)cc34)ncc2F)[nH]n1 (mixture of isomers) | System = Serine/threonine-protein kinase PLK1 (Homo sapiens) | pKi = ____
A. 5.77

---

# System: Influenza A virus
# measurement_notes: Antiviral activity against influenza A virus A/PR/8/34 strain incubated with MDCK cells assessed as reduction of viral RNA level equal to 1% of control level after 72 hrs by branched DNA assay
# Format: functional, organism-based
# test_conditions: A/Puerto Rico/8/1934(H1N1)
The compounds listed here are annotated with their pEC50.
Here pEC50 is given on a logarithmic scale as minus log10 of the concentration in mol/L.

compound	system_under_test	pEC50
CC(=O)NS(=O)(=O)[C@H]1C2CCC(CC2)[C@@H]1Nc1nc(-c2c[nH]c3ncc(F)cc23)ncc1F (mixture of isomers)	Influenza A virus	8.05
NS(=O)(=O)[C@H]1C2CCC(CC2)[C@@H]1Nc1nc(-c2c[nH]c3ncc(F)cc23)ncc1F (mixture of isomers)	Influenza A virus	8.22
Oc1cc([C@H]2C3CCC(CC3)[C@@H]2Nc2nc(-c3c[nH]c4ncc(F)cc34)ncc2F)no1 (mixture of isomers)	Influenza A virus	7.96
Cc1noc([C@H]2C3CCC(CC3)[C@@H]2Nc2nc(-c3c[nH]c4ncc(F)cc34)ncc2F)n1 (mixture of isomers)	Influenza A virus	6.92
Oc1cc([C@H]2C3CCC(CC3)[C@@H]2Nc2nc(-c3c[nH]c4ncc(F)cc34)ncc2F)on1 (mixture of isomers)	Influenza A virus	8.70
O=c1[nH]c(=O)n(C[C@H]2C3CCC(CC3)[C@@H]2Nc2nc(-c3c[nH]c4ncc(F)cc34)ncc2F)o1 (mixture of isomers)	Influenza A virus	7.44
Oc1cc([C@H]2C3CCC(CC3)[C@@H]2Nc2nc(-c3c[nH]c4ncc(F)cc34)ncc2F)[nH]n1 (mixture of isomers)	Influenza A virus	6.85
O=C(O)[C@H]1C2CCC(CC2)[C@@H]1Nc1nc(-c2c[nH]c3ncc(F)cc23)ncc1F	Influenza A virus	8.70

Q. Quick check: pEC50 of O=P(O)(O)CC[C@H]1C2CCC(CC2)[C@@H]1Nc1nc(-c2c[nH]c3ncc(F)cc23)ncc1F (mixture of isomers) ?
A. 6.48

Q. Quick check: pEC50 of Fc1cnc2[nH]cc(-c3ncc(F)c(N[C@H]4C5CCC(CC5)[C@@H]4c4nnn[nH]4)n3)c2c1 (mixture of isomers) ?
A. 7.42

Q. Quick check: pEC50 of Cc1nnc([C@H]2C3CCC(CC3)[C@@H]2Nc2nc(-c3c[nH]c4ncc(F)cc34)ncc2F)o1 (mixture of isomers) ?
A. 6.77

Q. Quick check: pEC50 of CS(=O)(=O)[C@H]1C2CCC(CC2)[C@@H]1Nc1nc(-c2c[nH]c3ncc(F)cc23)ncc1F (mixture of isomers) ?
A. 8.70

Q. Quick check: pEC50 of O=c1nc([C@H]2C3CCC(CC3)[C@@H]2Nc2nc(-c3c[nH]c4ncc(F)cc34)ncc2F)[nH]o1 (mixture of isomers) ?
A. 7.54

Q. Quick check: pEC50 of O=P(O)(O)[C@H]1C2CCC(CC2)[C@@H]1Nc1nc(-c2c[nH]c3ncc(F)cc23)ncc1F (mixture of isomers) ?
A. 7.29

---

Form: system (Vascular endothelial growth factor receptor 2 (Homo sapiens)), quantity (pKi), values below.
pKi: −log10 of the molar value.

Some solved cases for reference:
molecule	pKi
O=P(O)(O)[C@H]1C2CCC(CC2)[C@@H]1Nc1nc(-c2c[nH]c3ncc(F)cc23)ncc1F (mixture of isomers)	< 5.40
OCC(O)[C@H]1C2CCC(CC2)[C@@H]1Nc1nc(-c2c[nH]c3ncc(F)cc23)ncc1F (mixture of isomers)	5.62
Cc1noc([C@H]2C3CCC(CC3)[C@@H]2Nc2nc(-c3c[nH]c4ncc(F)cc34)ncc2F)n1 (mixture of isomers)	< 5.40
Oc1cc([C@H]2C3CCC(CC3)[C@@H]2Nc2nc(-c3c[nH]c4ncc(F)cc34)ncc2F)on1 (mixture of isomers)	< 5.40
O=P(O)(O)CC[C@H]1C2CCC(CC2)[C@@H]1Nc1nc(-c2c[nH]c3ncc(F)cc23)ncc1F (mixture of isomers)	< 5.40
Oc1cc([C@H]2C3CCC(CC3)[C@@H]2Nc2nc(-c3c[nH]c4ncc(F)cc34)ncc2F)[nH]n1 (mixture of isomers)	< 5.40

Read the next record carefully.
Q. Form: Entry = Oc1cc([C@H]2C3CCC(CC3)[C@@H]2Nc2nc(-c3c[nH]c4ncc(F)cc34)ncc2F)no1 (mixture of isomers) | System = Vascular endothelial growth factor receptor 2 (Homo sapiens) | pKi = ____
A. < 5.40

---

# Test system: Influenza A virus
# measurement_notes: Antiviral activity against influenza A virus A/PR/8/34 strain incubated with MDCK cells assessed as reduction of viral RNA level equal to 1% of control level after 72 hrs by branched DNA assay
# Assay type: functional, organism-based
# test_conditions: A/Puerto Rico/8/1934(H1N1)
Tag: True if measured EC99 is not below 0.1 µM, False if it is.

Q. Please indicate if the recorded EC99 for O=c1nc([C@H]2C3CCC(CC3)[C@@H]2Nc2nc(-c3c[nH]c4ncc(F)cc34)ncc2F)[nH]o1 (mixture of isomers) meets or exceeds 0.1 µM.
A. True

Q. Please indicate if the recorded EC99 for Oc1cc([C@H]2C3CCC(CC3)[C@@H]2Nc2nc(-c3c[nH]c4ncc(F)cc34)ncc2F)no1 (mixture of isomers) meets or exceeds 0.1 µM.
A. False

Q. Please indicate if the recorded EC99 for O=P(O)(O)CC[C@H]1C2CCC(CC2)[C@@H]1Nc1nc(-c2c[nH]c3ncc(F)cc23)ncc1F (mixture of isomers) meets or exceeds 0.1 µM.
A. True

Q. Please indicate if the recorded EC99 for O=P(O)(O)[C@H]1C2CCC(CC2)[C@@H]1Nc1nc(-c2c[nH]c3ncc(F)cc23)ncc1F (mixture of isomers) meets or exceeds 0.1 µM.
A. True

Q. Please indicate if the recorded EC99 for Cc1nnc([C@H]2C3CCC(CC3)[C@@H]2Nc2nc(-c3c[nH]c4ncc(F)cc34)ncc2F)o1 (mixture of isomers) meets or exceeds 0.1 µM.
A. True

---

# system_under_test: Phosphatidylinositol 4,5-bisphosphate 3-kinase catalytic subunit beta isoform (Homo sapiens, UniProt P42338)
# Sequence (P42338 whole entry, canonical isoform): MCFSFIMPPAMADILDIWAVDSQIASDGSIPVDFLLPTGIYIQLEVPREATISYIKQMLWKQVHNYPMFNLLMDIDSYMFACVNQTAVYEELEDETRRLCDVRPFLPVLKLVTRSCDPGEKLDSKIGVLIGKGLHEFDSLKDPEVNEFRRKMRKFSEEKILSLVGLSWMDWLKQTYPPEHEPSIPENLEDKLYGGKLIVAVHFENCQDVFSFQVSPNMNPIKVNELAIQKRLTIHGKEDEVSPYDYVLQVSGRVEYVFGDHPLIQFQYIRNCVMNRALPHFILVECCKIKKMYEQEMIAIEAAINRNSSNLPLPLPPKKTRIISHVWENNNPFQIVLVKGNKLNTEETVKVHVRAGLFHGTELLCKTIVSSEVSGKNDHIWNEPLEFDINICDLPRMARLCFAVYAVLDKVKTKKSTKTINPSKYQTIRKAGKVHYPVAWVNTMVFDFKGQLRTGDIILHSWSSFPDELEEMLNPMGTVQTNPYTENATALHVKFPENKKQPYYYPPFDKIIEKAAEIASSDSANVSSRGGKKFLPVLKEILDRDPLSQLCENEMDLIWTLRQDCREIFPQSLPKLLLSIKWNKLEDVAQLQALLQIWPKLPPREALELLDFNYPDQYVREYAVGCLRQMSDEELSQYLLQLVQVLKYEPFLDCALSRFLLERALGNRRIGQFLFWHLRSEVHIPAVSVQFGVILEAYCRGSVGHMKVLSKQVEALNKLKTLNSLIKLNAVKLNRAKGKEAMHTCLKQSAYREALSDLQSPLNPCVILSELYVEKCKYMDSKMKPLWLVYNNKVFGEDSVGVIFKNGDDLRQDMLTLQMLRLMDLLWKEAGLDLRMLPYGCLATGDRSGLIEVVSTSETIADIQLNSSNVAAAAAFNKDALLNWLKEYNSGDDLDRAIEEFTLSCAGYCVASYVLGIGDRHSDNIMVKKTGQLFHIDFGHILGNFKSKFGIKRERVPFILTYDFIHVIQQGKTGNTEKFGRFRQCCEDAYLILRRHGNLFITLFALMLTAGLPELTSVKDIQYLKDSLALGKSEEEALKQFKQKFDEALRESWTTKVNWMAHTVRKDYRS
# measurement_notes: Inhibition of PI3Kbeta (unknown origin)
pKi: −log10 of the molar value.
The compounds listed here are annotated with their pKi.

compound	result_value
CNC(=O)[C@H]1C2CCC(CC2)[C@@H]1Nc1nc(-c2c[nH]c3ncc(F)cc23)ncc1F (mixture of isomers)	< 5.40

Q. Quick check: pKi of O=c1[nH]c(=O)n(C[C@H]2C3CCC(CC3)[C@@H]2Nc2nc(-c3c[nH]c4ncc(F)cc34)ncc2F)o1 (mixture of isomers) ?
A. 5.70

Q. Quick check: pKi of Cc1noc([C@H]2C3CCC(CC3)[C@@H]2Nc2nc(-c3c[nH]c4ncc(F)cc34)ncc2F)n1 (mixture of isomers) ?
A. 5.64

Q. Quick check: pKi of Fc1cnc2[nH]cc(-c3ncc(F)c(N[C@H]4C5CCC(CC5)[C@@H]4c4nnn[nH]4)n3)c2c1 (mixture of isomers) ?
A. < 5.40

Q. Quick check: pKi of CC(O)[C@H]1C2CCC(CC2)[C@@H]1Nc1nc(-c2c[nH]c3ncc(F)cc23)ncc1F (mixture of isomers) ?
A. < 5.40

Q. Quick check: pKi of Oc1cc([C@H]2C3CCC(CC3)[C@@H]2Nc2nc(-c3c[nH]c4ncc(F)cc34)ncc2F)no1 (mixture of isomers) ?
A. < 5.40

Q. Quick check: pKi of O=c1nc([C@H]2C3CCC(CC3)[C@@H]2Nc2nc(-c3c[nH]c4ncc(F)cc34)ncc2F)[nH]o1 (mixture of isomers) ?
A. < 5.40

Q. Quick check: pKi of Cc1nnc([C@H]2C3CCC(CC3)[C@@H]2Nc2nc(-c3c[nH]c4ncc(F)cc34)ncc2F)o1 (mixture of isomers) ?
A. < 5.40

Q. Quick check: pKi of Oc1cc([C@H]2C3CCC(CC3)[C@@H]2Nc2nc(-c3c[nH]c4ncc(F)cc34)ncc2F)on1 (mixture of isomers) ?
A. < 5.40

Q. Quick check: pKi of O=P(O)(O)[C@H]1C2CCC(CC2)[C@@H]1Nc1nc(-c2c[nH]c3ncc(F)cc23)ncc1F (mixture of isomers) ?
A. < 5.40

Q. Quick check: pKi of CS(=O)(=O)[C@H]1C2CCC(CC2)[C@@H]1Nc1nc(-c2c[nH]c3ncc(F)cc23)ncc1F (mixture of isomers) ?
A. < 5.40

Q. Quick check: pKi of NS(=O)(=O)[C@H]1C2CCC(CC2)[C@@H]1Nc1nc(-c2c[nH]c3ncc(F)cc23)ncc1F (mixture of isomers) ?
A. < 5.40
